# Experimental System: UniProt P00533
# Assay: Inhibition of EGFR (unknown origin) at 10 uM after 15 mins by luminescence assay relative to control
Assay Metric: inhibition (%)
Numeric only. Scale: %

Example entries begin here.
# Sample Smiles, Obs Value
measured = [
    ("O=C(Nc1cccc(Nc2ncnc3c2Cc2ccccc2N3)c1)c1ccccc1", 30.7),
    ("Cc1cccc(C(=O)Nc2ccc(Nc3ncnc4c3Cc3ccccc3N4)cc2)c1", 51.1),
    ("O=C(Nc1ccc(Nc2ncnc3c2Cc2ccccc2N3)cc1)c1cccc(Cl)c1", 30.9),
]

The record that follows has no inhibition shown yet.
State its inhibition: "O=C(Nc1cccc(Nc2ncnc3c2Cc2ccccc2N3)c1)c1cccc(C(F)(F)F)c1"
16.3

---

# Experimental System: Epidermal growth factor receptor (Homo sapiens) (UniProt P00533)
# Sequence (P00533 whole entry): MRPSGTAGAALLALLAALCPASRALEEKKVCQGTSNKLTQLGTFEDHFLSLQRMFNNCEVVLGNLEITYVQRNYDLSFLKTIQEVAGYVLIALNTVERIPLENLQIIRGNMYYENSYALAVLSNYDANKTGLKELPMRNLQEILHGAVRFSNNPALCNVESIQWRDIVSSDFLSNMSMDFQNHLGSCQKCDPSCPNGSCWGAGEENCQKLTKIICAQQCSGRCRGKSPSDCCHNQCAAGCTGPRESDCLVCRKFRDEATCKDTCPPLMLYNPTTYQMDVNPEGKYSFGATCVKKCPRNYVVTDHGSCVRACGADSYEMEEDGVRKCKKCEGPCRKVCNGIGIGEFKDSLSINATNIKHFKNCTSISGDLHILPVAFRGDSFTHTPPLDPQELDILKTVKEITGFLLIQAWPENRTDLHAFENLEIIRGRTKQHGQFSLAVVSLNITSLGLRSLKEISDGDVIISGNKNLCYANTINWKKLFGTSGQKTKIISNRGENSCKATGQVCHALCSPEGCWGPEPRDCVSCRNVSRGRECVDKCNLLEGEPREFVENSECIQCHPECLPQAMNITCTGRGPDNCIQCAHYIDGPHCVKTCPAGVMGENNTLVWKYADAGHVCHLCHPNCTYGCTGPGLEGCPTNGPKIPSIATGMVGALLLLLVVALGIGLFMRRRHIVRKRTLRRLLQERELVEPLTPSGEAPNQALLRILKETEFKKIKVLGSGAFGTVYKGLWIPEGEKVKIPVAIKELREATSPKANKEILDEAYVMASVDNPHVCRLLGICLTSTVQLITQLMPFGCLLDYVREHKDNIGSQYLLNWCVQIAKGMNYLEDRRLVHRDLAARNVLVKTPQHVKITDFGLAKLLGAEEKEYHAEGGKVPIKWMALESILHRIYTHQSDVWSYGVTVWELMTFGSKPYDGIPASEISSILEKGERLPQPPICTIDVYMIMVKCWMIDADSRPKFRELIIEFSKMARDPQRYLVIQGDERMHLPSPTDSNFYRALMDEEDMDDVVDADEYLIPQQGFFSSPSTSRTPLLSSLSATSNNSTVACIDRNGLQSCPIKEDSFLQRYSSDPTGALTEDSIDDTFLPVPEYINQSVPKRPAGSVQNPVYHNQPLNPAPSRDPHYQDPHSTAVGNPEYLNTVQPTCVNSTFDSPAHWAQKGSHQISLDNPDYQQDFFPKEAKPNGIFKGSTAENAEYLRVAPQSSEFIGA
# Assay: Inhibition of EGFR (unknown origin) at 10 uM after 15 mins by luminescence assay relative to control
# if value of inhibition reaches 60%, tag yes; if it stays below, tag no

Consider the following illustrative entries.
# Sample Smiles, Classification
records = [
    ("Cc1cccc(NC(=O)Nc2ccc(Nc3ncnc4c3Cc3ccccc3N4)cc2)c1", "yes"),
    ("O=C(Nc1ccc(Nc2ncnc3c2Cc2ccccc2N3)cc1)Nc1cccc(Cl)c1", "no"),
    ("O=C(Nc1ccc(Nc2ncnc3c2Cc2ccccc2N3)cc1)Nc1cccc(C(F)(F)F)c1", "no"),
]

Kindly determine if inhibition recorded for "COc1cccc(C(=O)Nc2cccc(Nc3ncnc4c3Cc3ccccc3N4)c2)c1" is above or exactly 60%.
no

Kindly determine if inhibition recorded for "O=C(Nc1ccc(Nc2ncnc3c2Cc2ccccc2N3)cc1)Nc1cccc(F)c1" is above or exactly 60%.
no

---

# System: A549
# Assay: Antiproliferative activity against human A549 cells after 48 hrs by MTT assay
# Type: functional, cell-based
# Experimental Setup: A549, 48 h
The reader will find reported pIC50 values listed item by item below.
In textbook form, pIC50 equals minus log to base ten of the concentration in mol/L.

# Sample Smiles, Experimental System, pIC50
records = [
    ("O=C(Nc1cccc(Nc2ncnc3c2Cc2ccccc2N3)c1)c1cccc(F)c1", "A549", 5.04),
    ("O=C(Nc1cccc(Nc2ncnc3c2Cc2ccccc2N3)c1)c1ccccc1", "A549", 4.74),
    ("O=C(Nc1ccc(Nc2ncnc3c2Cc2ccccc2N3)cc1)Nc1cccc(F)c1", "A549", 5.17),
    ("O=C(Nc1ccccc1)Nc1ccc(Nc2ncnc3c2Cc2ccccc2N3)cc1", "A549", 4.74),
    ("Cc1cccc(C(=O)Nc2ccc(Nc3ncnc4c3Cc3ccccc3N4)cc2)c1", "A549", 4.61),
    ("COc1cccc(C(=O)Nc2ccc(Nc3ncnc4c3Cc3ccccc3N4)cc2)c1", "A549", 4.85),
]

Name the value of pIC50 reported for "COc1ccc2c(Nc3ccc(NC(=O)Nc4ccccc4)cc3)c3ccccc3nc2c1" when tested on A549.
5.04

Name the value of pIC50 reported for "O=C(Nc1ccc(Nc2ncnc3c2Cc2ccccc2N3)cc1)c1cccc(F)c1" when tested on A549.
6.60

---

The reader will find reported IC50 values listed item by item below.
# Test system: A549
# Assay: Antiproliferative activity against human A549 cells after 48 hrs by MTT assay
# Format: functional, cell-based
# Experimental Setup: A549, 48 h
Numeric only. Scale: µM

# Sample Smiles, IC50 [µM]
records = [
    ("O=C(Nc1ccc(Nc2ncnc3c2Cc2ccccc2N3)cc1)c1cccc(Cl)c1", 20.7),
]

The record that follows has no IC50 shown yet.
State its IC50: "O=C(Nc1cccc(Nc2ncnc3c2Cc2ccccc2N3)c1)c1cccc(Cl)c1"
12.3

Recorded values, source ChEMBL document CHEMBL4138102.
